# test: qHTS RealTime-Glo MT Cell Viability Assay in HEK293 cells - 16 hour (AID 1224872); note: nearly all actives have a fitted effect of over 50% in size
# test.context: RealTime-Glo luminescence; series mostly up to 76.8 µM
Results filed as inconclusive are left out. The source made the active and inactive calls. Calls come from the whole dose curve; as a rule, active = well fitted cell-killing curve with a large enough effect in the repeat runs; inconclusive = weak or mixed curves, or effect the other way; inactive = flat fitted curve, though single readings scatter.
Respond only with the outcome that fits, drawn from active, inactive

Which outcome was assigned to O=C(CCl)C(Cl)Cl in this test?
active

---

# test: qHTS assay for small molecule agonists of the antioxidant response element (ARE) signaling pathway - cell viability counter screen (AID 743203); note: nearly all actives have a fitted effect of over 55% in size
# test.context: ARE-bla HepG2 viability, CellTiter-Glo luminescence, 16 h; series mostly up to 73.3 µM
Records with an inconclusive call do not appear. The source made the active and inactive calls. The call rests on the fitted dose curve.
Field 'call' accepts active, inactive

Consider the following illustrative entries.
Hello, I am checking results. What call was entered for O=[N+]([O-])c1cc(C(F)(F)F)c(Cl)c([N+](=O)[O-])c1Cl ?
active

Recorded call for CN(C)CCc1c[nH]c2ccc(O)cc12 ?
inactive

Assay result, entry CCN(CC)C(=S)[S-].CCN(CC)C(=S)[S-].[Zn+2] — outcome?
active

Entry N#CNC#N : call = ?
inactive

Continuing:
Please share the test call associated with CC(=O)O[C@H]1CC[C@@]2(C)C(=CC[C@@H]3[C@@H]2CC[C@]2(C)C(=O)CC[C@@H]32)C1 .
inactive

Query: recorded result category for O=C(O)C1C2CCC(O2)C1C(=O)O (stereo unspecified) in this test
inactive

Entry COC(=O)N(C(=O)N1CO[C@@]2(C(=O)OC)Cc3cc(Cl)ccc3C2=N1)c1ccc(OC(F)(F)F)cc1 : call = ?
inactive

I'd appreciate the recorded outcome for CCCCCCCCCCCCCN1CC(C)OC(C)C1 (stereo unspecified) from this test.
inactive

Dear all, I need the recorded test outcome for CN(C)C(=S)[S-].CN(C)C(=S)[S-].[Cu+2] , thank you.
active

In this assay, the call recorded for CC1(C)CN=C(NN=C(/C=C/c2ccc(C(F)(F)F)cc2)/C=C/c2ccc(C(F)(F)F)cc2)NC1 was what?
active

Could you kindly confirm the outcome this assay logged for CCOP(=O)(NC(C)C)Oc1ccc(SC)c(C)c1 (stereo unspecified) ?
inactive

---

# test: qHTS assay to identify small molecule agonists of the sonic hedgehog signaling (Shh) pathway - cell viability counter screen (AID 1259366); note: nearly all actives have a fitted effect of over 50% in size
# test.context: NIH/3T3 Gli1-Luc viability, CellTiter-Fluor, 24 h; series mostly up to 92.4 µM
Inconclusive results are not listed. Activity calls are given as the source filed them. Calls come from the whole dose curve; as a rule, active = well fitted cell-killing curve with a large enough effect in the repeat runs; inconclusive = weak or mixed curves, or effect the other way; inactive = flat fitted curve, though single readings scatter.
Answer with one of the outcomes given here: TRUE (active), FALSE (inactive)

For orientation, consider the following solved cases.
In this assay, the call recorded for CCCN(CCC)c1c([N+](=O)[O-])cc(S(N)(=O)=O)cc1[N+](=O)[O-] was what?
TRUE

Which result was noted for this molecule in the test: CC(C)CC(C)N (centres undefined)
FALSE

Called result for CC(C)OC(=S)S
TRUE

Hi, do you know how [CH3][Hg][Cl] came out in this test?
TRUE

Look up the recorded call for NNC(=O)c1ccccc1 in this test.
FALSE

Per the records of this test, what outcome belongs to COC[C@H](C)N(C(=O)CCl)c1c(C)csc1C ?
FALSE

What is the recorded call for this molecule in the test? CN(C)C1CSSSC1
FALSE

Look up the recorded call for CC(=O)[O-].[Tl+] in this test.
FALSE

Could you kindly confirm the outcome this assay logged for C=CCOC(N)=O ?
FALSE

Which outcome did this test record for the molecule CCCCCCCCCCCCCCC(Br)C(=O)O (centres undefined) ?
FALSE

---
Status in this test for C[C@@H]1O[C@@H](O[C@@H]2C=C3CC[C@@H]4[C@H](CC[C@]5(C)[C@@H](c6ccc(=O)oc6)CC[C@]45O)[C@@]3(C)CC2)[C@H](O)[C@H](O)[C@H]1O ?
FALSE

Give the logged outcome of this assay for the following molecule: O=c1ssc(Cl)c1Cl
TRUE

Check the results log: what was the call for S=C(SSC(=S)N1CCCCC1)N1CCCCC1 ?
TRUE

In this assay, the call recorded for ClCCN1CCOCC1 was what?
FALSE
